EXPERIMENTAL SYSTEM: PD-1/PD-L1 interaction (Homo sapiens, UniProt Q9NZQ7)
Construct: expressed in transfected cells; host or cells: CHO cells (aAPC-PD-L1) co-cultured with Jurkat cells overexpressing PD-1 and an NFAT-luciferase reporter
Sequence (Q9NZQ7 19-290): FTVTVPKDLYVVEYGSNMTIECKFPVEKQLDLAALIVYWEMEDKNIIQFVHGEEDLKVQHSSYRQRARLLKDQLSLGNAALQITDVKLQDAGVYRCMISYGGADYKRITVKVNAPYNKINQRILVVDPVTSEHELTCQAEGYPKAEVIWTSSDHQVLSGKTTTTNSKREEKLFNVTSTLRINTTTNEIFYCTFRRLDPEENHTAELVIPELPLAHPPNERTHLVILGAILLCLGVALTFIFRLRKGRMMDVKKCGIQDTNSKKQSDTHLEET
EXPERIMENTAL PROTOCOL: PD-1/PD-L1 NFAT reporter co-culture assay
Type: cell-based
CONDITION DETAILS: Jurkat PD-1 NFAT-luciferase cells co-cultured with aAPC-PD-L1 CHO cells, 6 hrs at 37° C.; read-out: EC50 NFAT Luciferase
pEC50: −log10 of the molar value.
MEASUREMENT NAME: pEC50

Guide cases for pEC50, answers given:
INSERT INTO measurements (compound, value) VALUES
  ('Cc1c(COc2cc(OCc3cncc(C#N)c3)c(CNC[C@@H](O)CC(=O)O)cc2Cl)cccc1-c1cccc(-c2nc3cc(CNC[C@@H](O)CC(=O)O)ccc3o2)c1C', 6.95),
  ('Cc1c(COc2nc(OCCCC#N)c(CNC[C@@H](O)CC(=O)O)cc2Br)cccc1-c1cccc(COc2nc(OCCCC#N)c(CNC[C@@H](O)CC(=O)O)cc2Br)c1C', 6.70);

1: Cc1c(COc2ccc(CNCCO)cc2)cccc1-c1cccc(COc2cc(OCc3cncc(C#N)c3)c(CNCCO)cc2Cl)c1C
2: Cc1c(COc2cc(OCc3cncc(C#N)c3)c(CN[C@@](C)(CO)C(=O)O)cc2Cl)cccc1-c1cccc(-c2ccc3c(c2)OCC3N(C)C)c1C (stereo partly drawn)
3: Cc1c(COc2cc(OCc3cncc(C#N)c3)c(CNC[C@@H](O)CC(=O)O)cc2Cl)cccc1-c1cccc(-c2ccc(OCCNC[C@@H](O)CC(=O)O)cc2)c1C
Kindly order the items shown according to pEC50, from the highest value down. Arrange the labels as the request states and list them. 3, 2, 1
